# Study Target: T1, orthogonal hCD122 receptor (hoRb), hCD122 with H133D and Y134F (human, UniProt P14784 27-550)
# T1 sequence: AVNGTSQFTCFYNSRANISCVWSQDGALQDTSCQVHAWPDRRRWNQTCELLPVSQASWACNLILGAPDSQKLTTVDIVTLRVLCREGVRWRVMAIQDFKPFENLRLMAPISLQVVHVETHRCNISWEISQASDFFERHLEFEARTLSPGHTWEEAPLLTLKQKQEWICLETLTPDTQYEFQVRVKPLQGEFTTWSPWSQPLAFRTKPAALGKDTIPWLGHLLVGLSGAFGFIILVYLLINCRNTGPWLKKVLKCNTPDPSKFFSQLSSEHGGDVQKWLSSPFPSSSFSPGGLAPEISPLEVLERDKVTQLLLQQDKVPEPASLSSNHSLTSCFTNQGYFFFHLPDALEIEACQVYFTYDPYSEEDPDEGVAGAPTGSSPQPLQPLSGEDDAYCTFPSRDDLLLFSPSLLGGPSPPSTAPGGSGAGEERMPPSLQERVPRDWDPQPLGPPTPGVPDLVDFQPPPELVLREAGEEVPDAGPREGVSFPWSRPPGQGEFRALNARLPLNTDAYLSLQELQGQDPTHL
# Procedure Text: cell-based or functional assay
Readout Type: 3F8 Ortho Proliferation Signal 1:10 (cts/min)

The cases that follow already have their 3F8 Ortho Proliferation Signal 1:10 on record.
{"columns": ["Binder", "Experimental Value"],
 "data": [
  ["C125A, SQVLKA (ligand) APTSSSTKKTQLQLSQLLVLLKAILNGINNYKNPKLTRMLTFKFYMPKKATELKHLQCLEEELKPLEEVLNLAQSKNFHLRPRDLISNINVIVLELKGSETTFMCEYADETATIVEFLNRWITFAQSIISTLT", 44600],
  ["T113N, SQVLKA (ligand) APTSSSTKKTQLQLSQLLVLLKAILNGINNYKNPKLTRMLTFKFYMPKKATELKHLQCLEEELKPLEEVLNLAQSKNFHLRPRDLISNINVIVLELKGSETTFMCEYADETANIVEFLNRWITFCQSIISTLT", 33100],
  ["Q126K, SQVLKA (ligand) APTSSSTKKTQLQLSQLLVLLKAILNGINNYKNPKLTRMLTFKFYMPKKATELKHLQCLEEELKPLEEVLNLAQSKNFHLRPRDLISNINVIVLELKGSETTFMCEYADETATIVEFLNRWITFCKSIISTLT", 2490],
  ["T3C, SQVLKA (ligand) APCSSSTKKTQLQLSQLLVLLKAILNGINNYKNPKLTRMLTFKFYMPKKATELKHLQCLEEELKPLEEVLNLAQSKNFHLRPRDLISNINVIVLELKGSETTFMCEYADETATIVEFLNRWITFCQSIISTLT", 33700],
  ["SQVLWA (ligand) APTSSSTKKTQLQLSQLLVLLWAILNGINNYKNPKLTRMLTFKFYMPKKATELKHLQCLEEELKPLEEVLNLAQSKNFHLRPRDLISNINVIVLELKGSETTFMCEYADETATIVEFLNRWITFCQSIISTLT", 4470],
  ["L14M, SQVLKA (ligand) APTSSSTKKTQLQMSQLLVLLKAILNGINNYKNPKLTRMLTFKFYMPKKATELKHLQCLEEELKPLEEVLNLAQSKNFHLRPRDLISNINVIVLELKGSETTFMCEYADETATIVEFLNRWITFCQSIISTLT", 41500],
  ["SQVLAA (ligand) APTSSSTKKTQLQLSQLLVLLAAILNGINNYKNPKLTRMLTFKFYMPKKATELKHLQCLEEELKPLEEVLNLAQSKNFHLRPRDLISNINVIVLELKGSETTFMCEYADETATIVEFLNRWITFCQSIISTLT", 7290],
  ["M39L, SQVLKA (ligand) APTSSSTKKTQLQLSQLLVLLKAILNGINNYKNPKLTRLLTFKFYMPKKATELKHLQCLEEELKPLEEVLNLAQSKNFHLRPRDLISNINVIVLELKGSETTFMCEYADETATIVEFLNRWITFCQSIISTLT", 24600],
  ["K97Q, SQVLKA (ligand) APTSSSTKKTQLQLSQLLVLLKAILNGINNYKNPKLTRMLTFKFYMPKKATELKHLQCLEEELKPLEEVLNLAQSKNFHLRPRDLISNINVIVLELQGSETTFMCEYADETATIVEFLNRWITFCQSIISTLT", 40100],
  ["L80V, SQVLKA (ligand) APTSSSTKKTQLQLSQLLVLLKAILNGINNYKNPKLTRMLTFKFYMPKKATELKHLQCLEEELKPLEEVLNLAQSKNFHVRPRDLISNINVIVLELKGSETTFMCEYADETATIVEFLNRWITFCQSIISTLT", 34800]
]}

A: Q126E, SQVLKA (ligand) APTSSSTKKTQLQLSQLLVLLKAILNGINNYKNPKLTRMLTFKFYMPKKATELKHLQCLEEELKPLEEVLNLAQSKNFHLRPRDLISNINVIVLELKGSETTFMCEYADETATIVEFLNRWITFCESIISTLT
B: SQILKA (ligand) APTSSSTKKTQLQLSQLLILLKAILNGINNYKNPKLTRMLTFKFYMPKKATELKHLQCLEEELKPLEEVLNLAQSKNFHLRPRDLISNINVIVLELKGSETTFMCEYADETATIVEFLNRWITFCQSIISTLT
C: ΔA1, SQVLKA (ligand) PTSSSTKKTQLQLSQLLVLLKAILNGINNYKNPKLTRMLTFKFYMPKKATELKHLQCLEEELKPLEEVLNLAQSKNFHLRPRDLISNINVIVLELKGSETTFMCEYADETATIVEFLNRWITFCQSIISTLT
In: List these items ordered by 3F8 Ortho Proliferation Signal 1:10, big to small. The labels, placed in the requested order, form the answer.
Out: B, C, A
(B: 45700 cts/min, C: 21900 cts/min, A: 14600 cts/min)
